// provenance: patent US20110097323A1

# Tested On: CD16A F158 (human, UniProt P08637 17-208, limits assumed)
# Sequence (P08637 17-208 limits assumed): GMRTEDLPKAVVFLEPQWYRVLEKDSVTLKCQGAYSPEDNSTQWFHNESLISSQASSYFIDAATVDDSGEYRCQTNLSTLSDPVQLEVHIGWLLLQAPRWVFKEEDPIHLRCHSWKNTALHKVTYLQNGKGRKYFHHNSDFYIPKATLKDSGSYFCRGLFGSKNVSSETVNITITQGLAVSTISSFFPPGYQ
# Test Description: Table 3; relative to wild-type Fc; method not stated
# reported binding relative to wild-type Fc (fold); entries follow
Enter a number only.

Past entries and their recorded results:
| Binder | binding relative to wild-type Fc (fold) |
| --- | --- |
| Fc variant F243L R292P Y300L V305I P396L (other, UniProt P01857-1 99-330, looked up, name in EU numbering, domain: Fc region) EPKSCDKTHTCPPCPAPELLGGPSVFLLPPKPKDTLMISRTPEVTCVVVDVSHEDPEVKFNWYVDGVEVHNAKTKPPEEQYNSTLRVVSILTVLHQDWLNGKEYKCKVSNKALPAPIEKTISKAKGQPREPQVYTLPPSRDELTKNQVSLTCLVKGFYPSDIAVEWESNGQPENNYKTTPLVLDSDGSFFLYSKLTVDKSRWQQGNVFSCSVMHEALHNHYTQKSLSLSPGK | 8.25 |
| Fc variant P247L D270E N421K (other, UniProt P01857-1 99-330, looked up, name in EU numbering, domain: Fc region; positions are EU index) EPKSCDKTHTCPPCPAPELLGGPSVFLFPPKLKDTLMISRTPEVTCVVVDVSHEEPEVKFNWYVDGVEVHNAKTKPREEQYNSTYRVVSVLTVLHQDWLNGKEYKCKVSNKALPAPIEKTISKAKGQPREPQVYTLPPSRDELTKNQVSLTCLVKGFYPSDIAVEWESNGQPENNYKTTPPVLDSDGSFFLYSKLTVDKSRWQQGKVFSCSVMHEALHNHYTQKSLSLSPGK | 2.46 |
| Fc variant F243L P247L N421K (other, UniProt P01857-1 99-330, looked up, name in EU numbering, domain: Fc region; positions are EU index) EPKSCDKTHTCPPCPAPELLGGPSVFLLPPKLKDTLMISRTPEVTCVVVDVSHEDPEVKFNWYVDGVEVHNAKTKPREEQYNSTYRVVSVLTVLHQDWLNGKEYKCKVSNKALPAPIEKTISKAKGQPREPQVYTLPPSRDELTKNQVSLTCLVKGFYPSDIAVEWESNGQPENNYKTTPPVLDSDGSFFLYSKLTVDKSRWQQGKVFSCSVMHEALHNHYTQKSLSLSPGK | 1.71 |
| Fc variant D270E K392T P396L (other, UniProt P01857-1 99-330, looked up, name in EU numbering, domain: Fc region; positions are EU index) EPKSCDKTHTCPPCPAPELLGGPSVFLFPPKPKDTLMISRTPEVTCVVVDVSHEEPEVKFNWYVDGVEVHNAKTKPREEQYNSTYRVVSVLTVLHQDWLNGKEYKCKVSNKALPAPIEKTISKAKGQPREPQVYTLPPSRDELTKNQVSLTCLVKGFYPSDIAVEWESNGQPENNYTTTPLVLDSDGSFFLYSKLTVDKSRWQQGNVFSCSVMHEALHNHYTQKSLSLSPGK | 2.28 |

Could you now look at the following binder, please?
Look up and state reported binding relative to wild-type Fc (fold) for Fc variant F243L R292P Y300L P396L (other, UniProt P01857-1 99-330, looked up, name in EU numbering, domain: Fc region; positions are EU index) EPKSCDKTHTCPPCPAPELLGGPSVFLLPPKPKDTLMISRTPEVTCVVVDVSHEDPEVKFNWYVDGVEVHNAKTKPPEEQYNSTLRVVSVLTVLHQDWLNGKEYKCKVSNKALPAPIEKTISKAKGQPREPQVYTLPPSRDELTKNQVSLTCLVKGFYPSDIAVEWESNGQPENNYKTTPLVLDSDGSFFLYSKLTVDKSRWQQGNVFSCSVMHEALHNHYTQKSLSLSPGK 5.62
